Test Target: GST-hRIPK1 (8-327) (Homo sapiens (Human), UniProt Q13546)
Sequence (Q13546 8-327): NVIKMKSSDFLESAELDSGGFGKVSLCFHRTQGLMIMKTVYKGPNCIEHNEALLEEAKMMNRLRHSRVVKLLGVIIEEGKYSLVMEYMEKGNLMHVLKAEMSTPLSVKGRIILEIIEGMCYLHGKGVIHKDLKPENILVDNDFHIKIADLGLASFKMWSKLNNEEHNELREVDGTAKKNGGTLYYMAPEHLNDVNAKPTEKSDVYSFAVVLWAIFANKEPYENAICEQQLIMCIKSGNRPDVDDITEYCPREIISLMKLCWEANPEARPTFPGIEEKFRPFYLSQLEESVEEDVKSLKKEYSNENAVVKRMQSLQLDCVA
Protocol Text: Fluorescent Polarization Binding (FP Binding) assay, RIPK1
Assay Context: GST-hRIPK1 (8-327), mean of at least two independent experiments
Procedure: […] After addition of 5 μL of fluorescentlabeled ligand at twice the final concentrations in assay buffer, the plate was incubated at RT for […]. At the end, the binding was measured as FP value with the Envision (PerkinElmer) plate reader using filter for an excitation λ=531 nm FP and an emission λ=595 nm FP (S & P-pol). […] Test compound inhibition was expressed as percent inhibition of internal assay controls. […]

| Compound | IC50 |
| --- | --- |
| C=CC(C)(C)C(=O)N1CCOc2c(C#N)cncc2C1 | 0.1 to 100 nM |
| CCC(C)(C(=O)N1CCOc2c(C#N)cncc2C1)C(F)F (single isomer, unassigned) [Example 261] | 0.1 to 100 nM |
| N#Cc1cncc2c1OCCN(C(=O)C1CCN(c3nccn4ncnc34)CC1(F)F)C2 (stereo not shown) | 100 to 1000 nM |
| N#Cc1cncc2c1OCCN(C(=O)C1(F)CCN(c3ncc(F)cn3)CC1(F)F)C2 (single isomer, unassigned) [Example 295] | 100 to 1000 nM |

* * *

Test Target: GST-hRIPK1 (8-327) (Homo sapiens (Human))
Protocol Text: Fluorescent Polarization Binding (FP Binding) assay, RIPK1
Assay Context: GST-hRIPK1 (8-327), mean of at least two independent experiments

| Compound | IC50 |
| --- | --- |
| N#Cc1cncc2c1OCCN(C(=O)C1CCN(c3ccnc4c(Cl)cnn34)CC1)C2 | 0.1 to 100 nM |
| N#Cc1cncc2c1OCCN(C(=O)C1CCN(c3ncc(F)cn3)CC1F)C2 (single isomer, unassigned) [Example 306] | 0.1 to 100 nM |
| N#Cc1cncc2c1OCCN(C(=O)C1CCN(c3ncc(F)cn3)CC1F)C2 (single isomer, unassigned) [Example 305] | 100 to 1000 nM |
| N#Cc1cncc2c1OCCN(C(=O)C1CCN(c3nccn4ncnc34)CC1F)C2 (single isomer, unassigned) [Example 302] | 0.1 to 100 nM |
| CC(C)(C(=O)N1CCOc2c(C#N)cncc2C1)C1CC(OC(F)(F)F)C1 (stereo not shown) | 0.1 to 100 nM |
| COc1nc(N2CCC(C(=O)N3CCOc4c(C#N)cncc4C3)CC2)c(F)cc1F | 0.1 to 100 nM |
| O=C(C1CCN(c2ncnc(OCC(F)F)n2)CC1)N1CCOc2c(F)cncc2C1 | 100 to 1000 nM |

* * *

Test Target: GST-hRIPK1 (8-327) (Homo sapiens (Human))
Protocol Text: Fluorescent Polarization Binding (FP Binding) assay, RIPK1
Assay Context: 10 nM GST-hRIPK1 (8-327), 5 nM fluorescent-labeled ligand, RT, 30 min, mean of at least two independent experiments
Procedure: […] After addition of 5 μL of fluorescentlabeled ligand at twice the final concentrations in assay buffer, the plate was incubated at RT for […]. At the end, the binding was measured as FP value with the Envision (PerkinElmer) plate reader using filter for an excitation λ=531 nm FP and an emission λ=595 nm FP (S & P-pol). […] Test compound inhibition was expressed as percent inhibition of internal assay controls. […]

| Molecule | IC50 |
| --- | --- |
| CC(C)(CC#N)C(=O)N1CCOc2c(C#N)cccc2C1 | 0.1 to 100 nM |
| N#Cc1cncc2c1OCCN(C(=O)C1CCN(c3ncc(F)cn3)CC1)C2 | 0.1 to 100 nM |
| COc1ccc(N2CCC(F)(C(=O)N3CCOc4c(C#N)cncc4C3)CC2)nn1 | 100 to 1000 nM |
| CC(C)(Cl)C(=O)N1CCOc2c(C#N)cncc2C1 | 0.1 to 100 nM |
| COc1ncc(F)c(N2CCC(F)(C(=O)N3CCOc4c(C#N)cncc4C3)CC2)n1 | 0.1 to 100 nM |
| CC(C)(C(=O)N1CCOc2c(C#N)cncc2C1)C1CCN(c2ncc(F)cn2)C1 (stereo not drawn) | 0.1 to 100 nM |
| Cn1ccc2nc(N3CCC(F)(C(=O)N4CCOc5c(C#N)cncc5C4)CC3)ncc21 | 100 to 1000 nM |
| COc1nc(N2CCC(F)(C(=O)N3CCOc4c(C#N)cncc4C3)CC2)ncc1F | 0.1 to 100 nM |
| CSc1nc(N2CCC(F)(C(=O)N3CCOc4c(C#N)cncc4C3)CC2)ncc1F | 0.1 to 100 nM |
| CC(C)C(C)(C)C(=O)N1CCOc2c(C#N)cncc2C1 | 0.1 to 100 nM |
| N#Cc1cncc2c1OCCN(C(=O)C1(C(F)F)CC1)C2 | > 1000 nM |
| CCC(C)(CC#N)C(=O)N1CCOc2c(C#N)cncc2C1 (stereo not drawn) | 0.1 to 100 nM |
| COC1(C(=O)N2CCOc3c(F)cncc3C2)CCN(c2ncc(F)c(OCC(F)F)n2)CC1 | 0.1 to 100 nM |
| COC1(C(=O)N2CCOc3c(F)cncc3C2)CCN(c2ncc(F)c(OCCN(C)C)n2)CC1 | > 1000 nM |
| CC(C)(C(=O)N1CCOc2c(Cl)cncc2C1)C(F)F | 100 to 1000 nM |
| CC(C)(C(=O)N1CCOc2c(C#N)cncc2C1)C(F)F | 0.1 to 100 nM |
| CC(C#N)C(C)(C)C(=O)N1CCOc2c(C#N)cncc2C1 (stereo not drawn) | 100 to 1000 nM |
| N#Cc1cncc2c1OCCN(C(=O)C1(F)CCN(c3ncccc3F)CC1)C2 | 100 to 1000 nM |

* * *

Test Target: GST-hRIPK1 (8-327) (Homo sapiens (Human), UniProt Q13546)
Protocol Text: Fluorescent Polarization Binding (FP Binding) assay, RIPK1
Assay Context: 10 nM GST-hRIPK1 (8-327), 5 nM fluorescent-labeled ligand, RT, 30 min, mean of at least two independent experiments
Method: […] After addition of 5 μL of fluorescentlabeled ligand at twice the final concentrations in assay buffer, the plate was incubated at RT for […]. At the end, the binding was measured as FP value with the Envision (PerkinElmer) plate reader using filter for an excitation λ=531 nm FP and an emission λ=595 nm FP (S & P-pol). […] Test compound inhibition was expressed as percent inhibition of internal assay controls. […]
Metric Name: IC50

| Substance Smiles | Test Value |
| --- | --- |
| C[C@@H]1COc2c(C#N)cncc2CN1C(=O)C1CCN(c2ncc(F)cn2)CC1 | 0.0001 to 0.1 µM |
| C[C@@H]1COc2c(C#N)cncc2CN1C(=O)C(C)(C)CF | 0.0001 to 0.1 µM |
| N#Cc1cncc2c1OCCN(C(=O)C1(F)CCN(c3ncc(C(F)(F)F)cn3)CC1)C2 | 0.1 to 1 µM |
| C[C@@H]1C[C@]1(C)C(=O)N1CCOc2c(C#N)cncc2C1 | 0.1 to 1 µM |
| C[C@@H]1COc2c(C#N)cncc2CN1C(=O)C(C)(C)C(F)F | 0.0001 to 0.1 µM |
| CC1(C(=O)N2CCOc3c(C#N)cncc3C2)CCN(c2ncc(F)cn2)CC1 | 0.0001 to 0.1 µM |
| N#Cc1cccc2c1OCCN(C(=O)C1CCN(c3ncc(F)cn3)CC1)C2 | 0.0001 to 0.1 µM |
| CCOc1nc(N2CCC(F)(C(=O)N3CCOc4c(C#N)cncc4C3)CC2)ncc1F | 0.0001 to 0.1 µM |

* * *

Reported pIC50 by item:
Test Target: GST-hRIPK1 (8-327) (Homo sapiens (Human))
Protocol Text: Fluorescent Polarization Binding (FP Binding) assay, RIPK1
Assay Context: GST-hRIPK1 (8-327), mean of at least two independent experiments
pIC50: −log10 of the molar value.
Metric Name: pIC50

| Molecule | Test Value |
| --- | --- |
| N#Cc1cncc2c1OCCN(C(=O)C1CCN(c3ccnc4ccnn34)C[C@@H]1F)C2 (stereo partly shown) [Example 249] | 7.00 to 10.00 |
| N#Cc1cncc2c1OCCN(C(=O)C1CCN(c3ccnc4c(F)cnn34)C[C@@H]1F)C2 (stereo partly shown) [Example 226] | 7.00 to 10.00 |
| COc1nc(N2CCC(C(=O)N3CCCc4ccccc4C3)CC2)ncc1F [Example 237] | 7.00 to 10.00 |
| N#Cc1cncc2c1OCCN(C(=O)C1CCN(c3ncc(F)cn3)CCO1)C2 (stereo not shown) [Example 231] | < 6.00 |
| COc1nc(N2CCC(C(=O)N3CCOc4ccncc4C3)CC2)ncc1F [Example 238] | 7.00 to 10.00 |
| N#Cc1cncc2c1OCCN(C(=O)C1(F)CCN(c3ncc(F)cn3)CC1(F)F)C2 (single isomer, unassigned) [Example 296] | 7.00 to 10.00 |
| CC1(C(=O)N2CCOc3c(C#N)cncc3C2)CCN(c2ncc(F)cn2)CC1F (single isomer, unassigned) [Example 300] | 7.00 to 10.00 |
| Cn1nccc(N2CCC(C(=O)N3CCOc4c(C#N)cncc4C3)[C@@H](F)C2)c1=O (stereo partly shown) [Example 224] | < 6.00 |
| N#Cc1cncc2c1OCCN(C(=O)C1CCN(c3ncc(F)cn3)C[C@@H]1F)C2 (stereo partly shown) [Example 242] | 7.00 to 10.00 |
| CC(CF)(C(=O)N1CCOc2c(C#N)cncc2C1)C(F)F (stereo not shown) [Example 266] | 6.00 to 7.00 |
| CC(C)(C(=O)N1CCOc2c(C#N)cncc2C1)[C@H]1C[C@@H](Cn2nccn2)C1 [Example 291] | 6.00 to 7.00 |
| CCC(C)(OC)C(=O)N1CCOc2c(C#N)cncc2C1 (single isomer, unassigned) [Example 283] | 6.00 to 7.00 |
| CC(C)(C(=O)N1CCOc2c(C#N)cncc2C1)C1CC(n2cc(F)cn2)C1 (stereo not shown) [Example 277] | 6.00 to 7.00 |
| COCCOc1nc(N2CCC(C)(C(=O)N3CCOc4c(C#N)cncc4C3)C(F)(F)C2)ncc1F (stereo not shown) [Example 217] | 7.00 to 10.00 |
| CC(F)C(C)(C)C(=O)N1CCOc2c(C#N)cncc2C1 (single isomer, unassigned) [Example 270] | 7.00 to 10.00 |
| O=C(C1CCN(c2ccnc3ccnn23)CC1(F)F)N1CCOc2c(F)cncc2C1 (stereo not shown) [Example 252] | 6.00 to 7.00 |
